Below: compounds with IC50 recorded for ADAM-10 (UniProt O14672) in separate published works.

Reference set (2 entries):
# smilesRepr, IC50
records = [
    ("O=C(NO)[C@H]1CN(CC(=O)N2CCCC2)CCN1S(=O)(=O)c1cc(F)c(Oc2ccc(Cl)cc2)c(F)c1", "< 50 nM"),
    ("N#Cc1ccc(Oc2ccc(S(=O)(=O)N3CCN(C(=O)N4CCOCC4)C[C@@H]3C(=O)NO)cc2F)cc1", "< 50 nM"),
]

Kindly note: ADAM-10 (UniProt O14672), CN(C)c1ccc2c(S(=O)(=O)N3CCN(S(=O)(=O)c4cc(F)c(Oc5ccc(Cl)cc5)c(F)c4)[C@@H](C(=O)NO)C3)cccc2c1 , IC50 value reported: 1000 to 20000 nM

Kindly note: ADAM-10 (UniProt O14672), O=C(NO)[C@H]1CN(C(=O)CN2CCOCC2)CCN1S(=O)(=O)c1cc(F)c(Oc2ccc(Cl)cc2)c(F)c1 , IC50 value reported: < 50 nM

Kindly note: ADAM-10 (UniProt O14672), O=C(NO)[C@H]1CN(S(=O)(=O)c2cccc3cnccc23)CCN1S(=O)(=O)c1cc(F)c(Oc2ccc(Cl)cc2)c(F)c1 , IC50 value reported: < 50 nM

Kindly note: ADAM-10 (UniProt O14672), N=C(N)NCCC[C@@H](NS(=O)(=O)c1ccc(Oc2ccccc2)cc1)C(=O)NO , IC50 value reported: < 50 nM

Kindly note: ADAM-10 (UniProt O14672), N#Cc1ccc(C[C@@H](NS(=O)(=O)c2cc(F)c(Oc3ccc(F)cc3)c(F)c2)C(=O)NO)cc1 , IC50 value reported: 50 to 1000 nM
